# reported GI50; entries follow
Tested on: SK-MEL-2
Test: NCI tumour cell line growth inhibition, 48 h
Active and inactive are the calls of the source. Rule as the data show it: active = GI50 up to about 1.1 µM and inactive = higher.

See these solved cases before continuing.
O=C1C=CC(=O)N1n1c(Cc2ccccc2)n[nH]c1=O: > 100 µM (inactive)
CN(C)C(c1ccccc1)C(O)c1ccccc1 (stereo not given): > 100 µM (inactive)
CCC1(c2ccccc2)C(=O)N=C(c2ccccc2)N1CCc1ccccc1 (stereo not given): > 100 µM (inactive)

Q. State its GI50: `CC(=O)N1CC[N+](C)(CCCCN2c3ccccc3Sc3cc(N=[N+]=[N-])ccc32)CC1`
A. > 100 µM (inactive)

Q. State its GI50: `C=C(C(=O)OCC)C(=O)OCC`
A. > 100 µM (inactive)

Q. State its GI50: `C=C(CN(C)C)C(=O)c1cc(C)ccc1C`
A. 16.9 µM (inactive)

Q. State its GI50: `CC(=O)O[C@H]1CC[C@@]2(C)C(=CC[C@@H]3[C@@H]2CC[C@]2(C)C(=N/O)/C(=C\c4ccccc4)C[C@@H]32)C1`
A. 13 µM (inactive)

Q. State its GI50: CC(=O)OC1COC(N2CCc3cc([N+](=O)[O-])ccc32)C(OC(C)=O)C1OC(C)=O (stereo not given)
A. > 100 µM (inactive)

Q. State its GI50: `COc1ccc(-c2c(CN3CCOCC3)sc3nc4ccccc4n23)cc1`
A. 30.5 µM (inactive)

Q. State its GI50: OCC1OC(NC(=S)NCCC(F)(F)C(F)(F)C(F)(F)C(F)(F)C(F)(F)C(F)(F)F)C(O)C(O)C1O (stereo not given)
A. > 100 µM (inactive)
